Each recorded value in this set is attributed to ChEMBL document CHEMBL1773066.

Target: Signal transducer and activator of transcription 5A (Homo sapiens) (UniProt P42229)
Sequence (P42229 whole entry): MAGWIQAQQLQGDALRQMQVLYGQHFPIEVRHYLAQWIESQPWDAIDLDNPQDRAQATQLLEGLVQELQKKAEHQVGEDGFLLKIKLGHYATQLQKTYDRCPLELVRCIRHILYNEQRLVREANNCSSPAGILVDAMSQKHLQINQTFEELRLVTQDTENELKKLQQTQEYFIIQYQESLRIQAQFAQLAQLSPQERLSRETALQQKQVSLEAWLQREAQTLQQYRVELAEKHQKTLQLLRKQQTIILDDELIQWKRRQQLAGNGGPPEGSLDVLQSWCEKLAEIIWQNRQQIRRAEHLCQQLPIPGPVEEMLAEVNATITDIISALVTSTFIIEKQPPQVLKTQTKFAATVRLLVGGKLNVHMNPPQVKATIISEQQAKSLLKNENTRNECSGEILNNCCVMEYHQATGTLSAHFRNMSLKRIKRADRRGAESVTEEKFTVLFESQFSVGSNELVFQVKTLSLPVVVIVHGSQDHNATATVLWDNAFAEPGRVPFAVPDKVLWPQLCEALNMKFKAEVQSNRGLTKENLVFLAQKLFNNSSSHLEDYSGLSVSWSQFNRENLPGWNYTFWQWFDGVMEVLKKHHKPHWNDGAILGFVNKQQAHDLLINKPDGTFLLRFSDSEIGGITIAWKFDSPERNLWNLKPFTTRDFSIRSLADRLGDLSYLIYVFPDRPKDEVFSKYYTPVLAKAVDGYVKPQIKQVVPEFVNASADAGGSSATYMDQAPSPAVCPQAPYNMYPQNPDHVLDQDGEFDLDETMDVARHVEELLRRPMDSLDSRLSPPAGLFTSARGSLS
Assay: Inhibition of STAT5 phosphorylation in human K562 cells under hypoxic condition after 3 hrs by Western blotting
Format: cell-based
Active and inactive are the calls of the source. The calls are words filed in the database; no cut-off is given here.
endpoint-label: inhibition

Example entries and their recorded answers appear below.
compound="Clc1ccc(C(Cl)Cn2ncc3c(NCc4ccncc4)ncnc32)cc1 (stereo not given)" tested_target="Signal transducer and activator of transcription 5A (Homo sapiens) (UniProt P42229)" endpoint_label=inhibition endpoint_value=Active
compound="ClC(Cn1ncc2c(Nc3ccccc3)nc(SCCN3CCOCC3)nc21)c1ccccc1 (stereo not given)" tested_target="Signal transducer and activator of transcription 5A (Homo sapiens) (UniProt P42229)" endpoint_label=inhibition endpoint_value=Active
compound="Clc1cccc(Nc2nc(SCCN3CCOCC3)nc3c2cnn3CC(Cl)c2ccccc2)c1 (stereo not given)" tested_target="Signal transducer and activator of transcription 5A (Homo sapiens) (UniProt P42229)" endpoint_label=inhibition endpoint_value=Active
compound="Clc1cccc(Nc2nc(N3CCOCC3)nc3c2cnn3CC(Cl)c2ccccc2)c1 (stereo not given)" tested_target="Signal transducer and activator of transcription 5A (Homo sapiens) (UniProt P42229)" endpoint_label=inhibition endpoint_value=Active

What is its inhibition for Signal transducer and activator of transcription 5A (Homo sapiens) (UniProt P42229)? Entry: Fc1ccc(CNc2ncnc3c2cnn3CC(Cl)c2ccc(Cl)cc2)cc1 (stereo not given) Active
